The reported numbers originate from paper PMC3766616.

# study-system: Glutathione S-transferase (mainly GSTP1-1, from human placenta) (Homo sapiens)
# Sequence (P09211 2-210): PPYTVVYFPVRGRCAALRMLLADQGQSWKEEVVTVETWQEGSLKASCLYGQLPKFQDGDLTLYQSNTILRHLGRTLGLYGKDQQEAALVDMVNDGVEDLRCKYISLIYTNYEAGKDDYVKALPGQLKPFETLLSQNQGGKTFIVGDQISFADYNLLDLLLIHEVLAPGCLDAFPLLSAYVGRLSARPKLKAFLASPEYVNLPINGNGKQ
assay-metric: IC50 (nM)
Write the value in nM as a bare number.

// IC50 lookup, molecule = COc1cc(/C=C/COC(=O)/C=C/c2ccc(O)c(OC)c2)ccc1O [CF, Coniferyl ferulate] , result: 300
